Where do these numbers come from? They come from ChEMBL document CHEMBL5506030.

# assayed.target: Cyclin-dependent kinase 9 (Homo sapiens)
# Sequence (P50750 whole entry): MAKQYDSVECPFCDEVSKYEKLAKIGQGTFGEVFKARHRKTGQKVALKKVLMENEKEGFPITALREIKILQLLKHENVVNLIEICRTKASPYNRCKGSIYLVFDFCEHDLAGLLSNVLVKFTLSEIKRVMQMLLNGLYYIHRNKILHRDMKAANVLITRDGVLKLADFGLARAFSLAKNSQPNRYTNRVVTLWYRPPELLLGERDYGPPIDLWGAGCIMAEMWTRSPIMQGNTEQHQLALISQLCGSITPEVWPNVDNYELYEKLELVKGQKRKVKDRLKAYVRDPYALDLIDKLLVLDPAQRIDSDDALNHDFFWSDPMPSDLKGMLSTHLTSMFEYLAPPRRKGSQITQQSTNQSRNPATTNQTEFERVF
# test.protocol: Inhibition of CDK9 (unknown origin) by luciferase reporter gene assay
pIC50: −log10 of the molar value.
Binary classification by pIC50, with 7 as an inclusive lower bound for 1; all other cases are 0.

Please review the following examples before continuing.
O=C1CCC(N2C(=O)c3cccc(OCCCCCCCCn4cc(CCN5CCC(NC(=O)c6n[nH]cc6NC(=O)c6c(Cl)cccc6Cl)CC5)nn4)c3C2=O)C(=O)N1 (stereo unspecified) :: 1
O=C1CCC(N2C(=O)c3cccc(OCCCCCn4cc(CCCCN5CCC(NC(=O)c6n[nH]cc6NC(=O)c6c(Cl)cccc6Cl)CC5)nn4)c3C2=O)C(=O)N1 (stereo unspecified) :: 0
O=C1CCC(N2C(=O)c3cccc(OCCCCn4cc(CCCCCCCCCCN5CCC(NC(=O)c6n[nH]cc6NC(=O)c6c(Cl)cccc6Cl)CC5)nn4)c3C2=O)C(=O)N1 (stereo unspecified) :: 1

Here is the next item to consider.
Can O=C1CCC(N2C(=O)c3cccc(OCCCCn4cc(CCCCCN5CCC(NC(=O)c6n[nH]cc6NC(=O)c6c(Cl)cccc6Cl)CC5)nn4)c3C2=O)C(=O)N1 (stereo unspecified) be said to have pIC50 at or above 7? 0

----------
Could you please report measured selectivity ratio for the items listed next?
# Test system: CYP1A2 versus CYP1B1
# test.protocol: Selectivity index, ratio of IC50 for CYP1A2 (unknown origin) to IC50 for CYP1B1 (unknown origin)
# settings: read-out: Ratio IC50
Answers are plain numbers.

Worked cases, answers included:
COc1ccc(OC)c2c1c(OC)cc1c(=O)cc(-c3cccc(-c4cnnn4CCOCCOCCOc4cccc5c4C(=O)N(C4CCC(=O)NC4=O)C5=O)c3)oc12 (centres undefined) :: 73.2
COc1ccc(OC)c2c1c(OC)cc1c(=O)cc(-c3cccc(-c4cnnn4CCCCCCOc4cccc5c4C(=O)N(C4CCC(=O)NC4=O)C5=O)c3)oc12 (centres undefined) :: 180
COc1ccc(OC)c2c1c(OC)cc1c(=O)cc(-c3cccc(-c4cn(CCCCCCOc5cccc6c5C(=O)N(C5CCC(=O)NC5=O)C6=O)nn4)c3)oc12 (centres undefined) :: 35.4

The value of selectivity ratio measured for the molecule COc1ccc(OC)c2c1c(OC)cc1c(=O)cc(-c3cccc(-c4cn(CCOCCOCCOc5cccc6c5C(=O)N(C5CCC(=O)NC5=O)C6=O)nn4)c3)oc12 (centres undefined) turned out to be 37

----------
# assayed.target: Cytochrome P450 1B1 (Homo sapiens, UniProt Q16678)
# Sequence (Q16678 whole entry): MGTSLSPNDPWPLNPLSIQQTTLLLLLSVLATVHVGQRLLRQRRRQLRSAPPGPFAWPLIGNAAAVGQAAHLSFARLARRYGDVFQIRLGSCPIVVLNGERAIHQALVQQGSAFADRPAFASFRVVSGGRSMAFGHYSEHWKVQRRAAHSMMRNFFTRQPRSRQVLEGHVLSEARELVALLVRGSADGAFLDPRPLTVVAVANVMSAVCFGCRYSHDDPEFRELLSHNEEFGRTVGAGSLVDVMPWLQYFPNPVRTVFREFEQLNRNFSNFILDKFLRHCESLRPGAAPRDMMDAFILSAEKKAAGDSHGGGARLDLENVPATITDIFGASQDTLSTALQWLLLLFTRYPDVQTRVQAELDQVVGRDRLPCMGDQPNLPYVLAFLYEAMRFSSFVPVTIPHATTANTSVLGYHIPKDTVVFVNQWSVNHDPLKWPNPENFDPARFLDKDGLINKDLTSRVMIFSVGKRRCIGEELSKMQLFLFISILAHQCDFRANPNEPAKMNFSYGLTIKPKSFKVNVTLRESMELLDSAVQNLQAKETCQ
result.type: pIC50
Give bare numbers, as −log10 of the molar value.

The value of pIC50 measured for the compound COc1ccc(OC)c2c1c(OC)cc1c(=O)cc(-c3cccc(-c4cn(CCOCCOCCOc5cccc6c5C(=O)N(C5CCC(=O)NC5=O)C6=O)nn4)c3)oc12 (stereo unspecified) turned out to be 6.97
